Measured values drawn from patent US9469650B2 for this set.

System: OVCAR-3
Assay: panel of 60 human tumor cell lines, growth inhibition (Ovarian Cancer)
Conditions: OVCAR-3; Log10 Concentration −7.0
Readout Name: Percent Growth (%)
Give the quantity in %, number only.

Completed entries (count: 4):
C=C1C(=O)O[C@H]2[C@H]1CC/C(COC(=O)NC)=C\CC[C@@]1(C)O[C@@H]21 | 100
C=C1C(=O)O[C@H]2[C@H]1CC/C(COC(=O)NCCN1CCCCC1)=C\CC[C@@]1(C)O[C@@H]21 | 105
C=C1C(=O)O[C@H]2[C@H]1CC/C(COC(=O)OCCCN1CCCCC1)=C\CC[C@@]1(C)O[C@@H]21 | 96
C=C1C(=O)O[C@H]2[C@H]1CC/C(COC(=O)N1CCN(C)CC1)=C\CC[C@@]1(C)O[C@@H]21 | 107

Reported Percent Growth ( C=C1C(=O)O[C@H]2[C@H]1CC/C(COC(=O)NCCCCCCO)=C\CC[C@@]1(C)O[C@@H]21 ) = 111
